Where do the numbers come from? From patent US20250277029A1.

Provide the reported Mean IC50 (nM), cAMP antagonist assay of each item.
- target: human cannabinoid receptor 1 (huCB1), full length, expressed on cells (human, UniProt P21554 1-472)
- Sequence (P21554 whole entry): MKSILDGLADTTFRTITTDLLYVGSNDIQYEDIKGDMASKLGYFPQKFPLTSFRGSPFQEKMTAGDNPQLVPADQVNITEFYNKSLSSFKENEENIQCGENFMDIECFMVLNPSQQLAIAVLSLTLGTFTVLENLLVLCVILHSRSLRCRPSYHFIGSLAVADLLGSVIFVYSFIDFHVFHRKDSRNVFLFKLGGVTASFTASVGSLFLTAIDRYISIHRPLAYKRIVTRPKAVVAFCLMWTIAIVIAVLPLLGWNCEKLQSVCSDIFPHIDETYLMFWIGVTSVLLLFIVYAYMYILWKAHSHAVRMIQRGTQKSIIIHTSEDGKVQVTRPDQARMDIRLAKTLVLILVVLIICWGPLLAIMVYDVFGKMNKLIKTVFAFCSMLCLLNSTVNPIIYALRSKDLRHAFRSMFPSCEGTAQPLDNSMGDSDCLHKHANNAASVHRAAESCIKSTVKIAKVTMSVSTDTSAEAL
- procedure-text: cell-based or functional assay
One number for each entry, in nM.

binder: LIBC527814-1 (antibody, V domains shown, Expressed as IgG1 SEFL2 mAb) VH: QVQLQESGPGLVKPSQTLSLTCTVSGGSIRRGGDYWGWIRQHPGKGLEWIGHVYQTGSTKYNPSFKDRATISVNTYKNQFSLKLSSVTAADTAVYYCARNYDTLTGYSYYYYGMDVWGQGTTVTVSS VL: DIQMTQSPSTLSASVGDRVTITCRASQSISNYLNWYQQKPGKAPKLLIYAASSLHSGVPSRFSGSGSGTDFTLTISSLQPEDFASYYCQQYQSYPLTFGQGTKVEIKR
Mean IC50 (nM), cAMP antagonist assay: 2.97

Next binder, please.
Data request, read-out Mean IC50 (nM), cAMP antagonist assay, for LIBC527906-1 (antibody, V domains shown) VH: QVQLQESGPGLVKPSQTLSLTCTVSGGSIRRGGDYWGWIRQHPGKGLEWIGHIYQTGSTNYNPNFKDRATISVDTYKNQFSLKLSSVTAADTAVYYCARDYDILTGYSYYYYGMDVWGQGTTVTVSS VL: DIQLTQSPSTLSASVGDRVTITCRASQSISNYLNWYQQKPGKAPKLLIYAASSLHSGVPSRFSGSGSGTDFTLTISSLQPEDFASYYCQQYQSYPLTFGQGTKVEIKR 5.15
